System: Bacillus subtilis
TEST_NAME: Antimicrobial activity against Bacillus subtilis NCIM-2063 assessed as reduction in microbial growth after 24 hrs by CLSI based broth dilution method
Assay type: functional
EXPERIMENTAL_CONTEXT: NCIM-2063, 24 h
QUANTITY_KIND: MIC (µg/mL)
Give the number; µg/mL is assumed, so skip it.

Identify MIC associated with the compound "C[C@H]1COc2c(N3CCN(C)CC3)c(F)cc3c(=O)c(C(=O)O)cn1c23.C[C@H]1COc2c(N3CCN(C)CC3)c(F)cc3c(=O)c(C(=O)O)cn1c23.O"
3.12

Identify MIC associated with the compound O=[N+]([O-])c1cccc(Nc2nc(NC3=NC(c4ccccc4O)=CC(c4ccccc4[N+](=O)[O-])S3)nc(Nc3cccc([N+](=O)[O-])c3)n2)c1 (centres undefined)
6.25

----------
TEST_NAME: Cytotoxicity against African green monkey Vero cells incubated for 72 hrs by MTT assay
Assay type: cell-based
EXPERIMENTAL_CONTEXT: chlorocebus sabaeus
Can you tell me CC50 at 72 h for the items I'm about to list?
Give the number; µg/mL is assumed, so skip it.

Identify CC50 at 72 h associated with the compound "O=C(N/N=C/c1ccc2c(c1)OCO2)c1ccc(Nc2nc(N3CCCCC3)nc(N3CCCCC3)n2)cc1"
250

Identify CC50 at 72 h associated with the compound "O=C(N/N=C/c1ccccc1)c1ccc(Nc2nc(N3CCCCC3)nc(N3CCCCC3)n2)cc1"
250

Identify CC50 at 72 h associated with the compound "O=C(O)c1ccc(Nc2nc(Cl)nc(NCc3ccccc3)n2)cc1"
225

Identify CC50 at 72 h associated with the compound "Nc1nc(N)nc(Nc2ccc(C(=O)N/N=C/c3ccco3)cc2)n1"
125

Identify CC50 at 72 h associated with the compound "O=C(O)c1ccc(Nc2nc(Cl)nc(N3CCCCC3)n2)cc1"
125

----------
Tested on: Nakaseomyces glabratus
TEST_NAME: Antifungal activity against Candida glabrata NCIM-3266 at 18 to 24 hrs by CLSI based alamar blue assay
Type: functional
Can you tell me MIC for the items I'm about to list?

Identify MIC associated with the molecule "c1ccc(-c2csc(Nc3nc(N4CCOCC4)nc(N4CCOCC4)n3)n2)cc1"
0.63 to 5 µg/mL

Identify MIC associated with the molecule "O=[N+]([O-])c1ccc(-c2csc(Nc3nc(N4CCOCC4)nc(N4CCOCC4)n3)n2)cc1"
0.63 to 5 µg/mL

Identify MIC associated with the molecule "Clc1ccc(-c2csc(Nc3nc(N4CCOCC4)nc(N4CCOCC4)n3)n2)cc1"
0.63 to 5 µg/mL

----------
System: Escherichia coli
TEST_NAME: Antimicrobial activity against Escherichia coli ATCC 25922 assessed as reduction in microbial growth after 24 to 48 hrs by microdilution susceptibility test
Type: functional
QUANTITY_KIND: MIC

Identify MIC associated with the molecule "O=C(CNc1nc(NCC(=O)N/N=C/c2ccc(Cl)cc2)nc(N2CCN(c3nc(NCC(=O)N/N=C/c4ccc(Cl)cc4)nc(NCC(=O)N/N=C/c4ccc(Cl)cc4)n3)CC2)n1)N/N=C/c1ccc(Cl)cc1"
12.5 to 25 µg/mL

Identify MIC associated with the molecule "O=C(CNc1nc(NCC(=O)N/N=C/c2ccc(Cl)cc2)nc(Nc2ccc(Nc3nc(NCC(=O)N/N=C/c4ccc(Cl)cc4)nc(NCC(=O)N/N=C/c4ccc(Cl)cc4)n3)cc2)n1)N/N=C/c1ccc(Cl)cc1"
12.5 to 25 µg/mL

Identify MIC associated with the molecule "O=C(CNc1nc(NCC(=O)N/N=C/c2ccc(Cl)cc2)nc(Nc2ccc(-c3ccc(Nc4nc(NCC(=O)N/N=C/c5ccc(Cl)cc5)nc(NCC(=O)N/N=C/c5ccc(Cl)cc5)n4)cc3)cc2)n1)N/N=C/c1ccc(Cl)cc1"
12.5 to 25 µg/mL
